# Assayed target: Histone deacetylase
# Assay method text: Inhibition of human HDAC in HeLa cells by flour de lys assay
# Format: cell-based
Endpoint: IC50 (nM)

These solved cases illustrate the format of a correct answer.
COc1ccc(-c2cn(CCCCCC(=O)NO)nn2)cc1 : 2.09
CN(C)c1ccc(-c2cn(CCCCCC(=O)NO)nn2)cc1 : 4.3
O=C(CCCCCn1cc(-c2ccc(-c3ccncc3)cc2)nn1)NO : 2.3
O=C(CCCCCn1cc(-c2ccc3ccccc3n2)nn1)NO : 2.1
Cc1ccc(-c2cn(CCCCCC(=O)NO)nn2)cc1 : 43.4
O=C(CCCCCn1cc(-c2cccnc2)nn1)NO : 287.2
CN(C)c1ccc(-c2cn(CCCCCCC(=O)NO)nn2)cc1 : 106.1
Cc1ccccc1-c1cn(CCCCCC(=O)NO)nn1 : 17.4
O=C(CCCCCCn1cc(-c2ccccn2)nn1)NO : 23.9
COc1cccc(OC)c1-c1cn(CCCCCC(=O)NO)nn1 : 315.9

a. O=C(CCCCCCn1cc(-c2ccccc2)nn1)NO
b. O=C(CCCCCn1cc(-c2ccccc2-c2ccccc2)nn1)NO
c. O=C(CCCCCCn1cc(-c2cccc(-c3ccccc3)c2)nn1)NO
*Q* Let's sort these by IC50, smallest first. Go ahead? Lab note: record answer as labels in requested order.
*A* c, a, b

====

# Assayed target: Histone deacetylase
# Assay method text: Inhibition of human HDAC in HeLa cells by flour de lys assay
# Type: cell-based
Endpoint: IC50 (nM)

COc1ccc2cc(-c3cn(CCCCCC(=O)NO)nn3)ccc2c1 : 1.8
COc1ccccc1-c1cn(CCCCCC(=O)NO)nn1 : 76
O=C(CCCCCn1cc(-c2ccc3cccnc3c2)nn1)NO : 151.5
COc1ccc2cc(-c3cn(CCCCCCC(=O)NO)nn3)ccc2c1 : 15.3
O=C(CCCCCn1cc(-c2cccc(-c3ccccc3)c2)nn1)NO : 1.9
Cc1cccc(-c2cn(CCCCCC(=O)NO)nn2)c1 : 31.9
O=C(CCCCCn1cc(-c2ccc(-c3ccccc3)cc2)nn1)NO : 52.4
O=C(CCCCCn1cc(-c2ccncc2)nn1)NO : 112.5
O=C(CCCCCn1cc(-c2ccccc2)nn1)NO : 14.2
O=C(CCCCCCn1cc(-c2ccc(-c3ccncc3)cc2)nn1)NO : 16.6

A. COc1cccc(-c2cn(CCCCCC(=O)NO)nn2)c1
B. O=C(CCCCCn1cc(-c2cccs2)nn1)NO
*Q* Which has the higher IC50, A or B ? Could you answer with the label of the item you picked?
*A* B

meta.source: ChEMBL document CHEMBL1157204
